Values compiled from the supplement of paper PMC11061612.

System: CAL-39 (Other Solid Carcinomas)
Experiment: Bliss excess, mean over the matrix (fraction); higher = more synergy;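 further: after 72 h of two-drug dosing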
Catalogue of Bliss excess values
reported.endpoint: Bliss excess

1. COc1cccc(OCCCN)c1-c1cc(Nc2cnc(C#N)cn2)n[nH]1 [Prexasertib] + Cc1cc2ncnn2cc1Nc1ncc2c(n1)n(C1CCOCC1)c(=O)n2C [AZD7648] (first compound max 1 µM, 7x7, partner max 10 µM)
-0.0122
2. CC1(C)CCC(CN2CCN(c3ccc(C(=O)NS(=O)(=O)c4ccc(NCC5CCOCC5)c([N+](=O)[O-])c4)c(Oc4cnc5[nH]ccc5c4)c3)CC2)=C(c2ccc(Cl)cc2)C1 [Venetoclax] + Cn1cnc2c(F)c(Nc3ccc(Br)cc3Cl)c(C(=O)NOCCO)cc21 [Selumetinib] (first compound max 1 µM, 7x7, partner max 3 µM)
0.0138
3. CN(CCO)CC[C@H](CSc1ccccc1)Nc1ccc(S(=O)(=O)NC(=O)c2ccc(N3CCC([C@@H](O)c4ccccc4-c4ccc(Cl)cc4)CC3)cc2)cc1S(=O)(=O)C(F)(F)F [AZD4320] + CS(=O)(=O)CCNCc1ccc(-c2ccc3ncnc(Nc4ccc(OCc5cccc(F)c5)c(Cl)c4)c3c2)o1 [Lapatinib] (first compound max 1 µM, 7x7, partner max 10 µM)
0.0372

====

Test system: CS1 (Chondrosarcoma)
Assay: Bliss excess, mean over the matrix (fraction); higher = more synergy
reported.endpoint: Bliss excess

1) CS(=O)(=O)CCNCc1ccc(-c2ccc3ncnc(Nc4ccc(OCc5cccc(F)c5)c(Cl)c4)c3c2)o1 [Lapatinib] + C[C@@H](Oc1cc(-c2cnn(C3CCNCC3)c2)cnc1N)c1c(Cl)ccc(F)c1Cl [Crizotinib] (first compound max 10 µM, 7x7, partner max 10 µM)
-0.0093
2) COc1cccc2c1C(=O)c1c(O)c3c(c(O)c1C2=O)C[C@@](O)(C(=O)CO)C[C@@H]3O[C@H]1C[C@H](N)[C@H](O)[C@H](C)O1 [Doxorubicin] + Cc1cc2ncnn2cc1Nc1ncc2c(n1)n(C1CCOCC1)c(=O)n2C [AZD7648] (first compound max 1 µM, 7x7, partner max 10 µM)
0.0851
3) N#Cc1cnc(Nc2cc(NC[C@H]3CNCCO3)c(C(F)(F)F)cn2)cn1 [SRA737] + O=c1[nH]cc(F)c(=O)[nH]1 [5-Fluorouracil] (first compound max 10 µM, 7x7, partner max 20 µM)
-0.0251
4) C[C@@H](c1ccc2nccn2c1)n1nnc2ncc(-c3cnn(C)c3)nc21 [Savolitinib] + Cc1c2c(nn1C)CSCc1cc(n(C)n1)CSc1cc(c3ccccc3c1)OCCCc1c(C(=O)O)n(C)c3c-2c(Cl)ccc13 [AZD5991] (first compound max 1 µM, 7x7, partner max 1 µM)
-0.031
5) COc1cccc(OCCCN)c1-c1cc(Nc2cnc(C#N)cn2)n[nH]1 [Prexasertib] + O=C(c1cc(Cc2n[nH]c(=O)c3ccccc23)ccc1F)N1CCN(C(=O)C2CC2)CC1 [Olaparib] (first compound max 1 µM, 7x7, partner max 10 µM)
-0.0635
6) CN(CCO)CC[C@H](CSc1ccccc1)Nc1ccc(S(=O)(=O)NC(=O)c2ccc(N3CCC([C@@H](O)c4ccccc4-c4ccc(Cl)cc4)CC3)cc2)cc1S(=O)(=O)C(F)(F)F [AZD4320] + Cc1cc2ncnn2cc1Nc1ncc2c(n1)n(C1CCOCC1)c(=O)n2C [AZD7648] (first compound max 1 µM, 7x7, partner max 10 µM)
-0.02
7) COc1cccc(OCCCN)c1-c1cc(Nc2cnc(C#N)cn2)n[nH]1 [Prexasertib] + C[C@@H]1COCCN1C2=NC(=NC(=C2)C3(CC3)[S@](=N)(=O)C)C4=C5C=CNC5=NC=C4 [AZD6738] (first compound max 1 µM, 7x7, partner max 10 µM)
-0.0111
8) CC(=O)c1c(C)c2cnc(Nc3ccc(N4CCNCC4)cn3)nc2n(C2CCCC2)c1=O [Palbociclib] + CC1(C)CCC(CN2CCN(c3ccc(C(=O)NS(=O)(=O)c4ccc(NCC5CCOCC5)c([N+](=O)[O-])c4)c(Oc4cnc5[nH]ccc5c4)c3)CC2)=C(c2ccc(Cl)cc2)C1 [Venetoclax] (first compound max 10 µM, 7x7, partner max 1 µM)
-0.0457
9) Cc1c2c(nn1C)CSCc1cc(n(C)n1)CSc1cc(c3ccccc3c1)OCCCc1c(C(=O)O)n(C)c3c-2c(Cl)ccc13 [AZD5991] + CCN(CCO)CCCOc1ccc2c(Nc3cc(CC(=O)Nc4cccc(F)c4)[nH]n3)ncnc2c1 [AZD2811] (first compound max 1 µM, 7x7, partner max 1 µM)
-0.044
10) Cc1nc(-c2cn3c(n2)-c2ccc(-c4cnn(C(C)(C)C(N)=O)c4)cc2OCC3)n(C(C)C)n1 [Taselisib] + O=C(Nc1ccc2[nH]nc(-c3ccncc3)c2c1)[C@@H]1CCN(CC(=O)N2CCN(c3ccc(-c4ncccn4)cc3)CC2)C1 [SCH772984] (first compound max 10 µM, 7x7, partner max 5 µM)
0.0942
11) CC(=O)c1c(C)c2cnc(Nc3ccc(N4CCNCC4)cn3)nc2n(C2CCCC2)c1=O [Palbociclib] + Cn1cnc2c(F)c(Nc3ccc(Br)cc3Cl)c(C(=O)NOCCO)cc21 [Selumetinib] (first compound max 10 µM, 7x7, partner max 10 µM)
0.0219
12) Cn1cnc2c(F)c(Nc3ccc(Br)cc3Cl)c(C(=O)NOCCO)cc21 [Selumetinib] + CC(C)n1c(=O)n(C)c2cnc3cc(F)c(-c4ccc(OCCCN5CCCCC5)nc4)cc3c21 [AZD1390] (first compound max 10 µM, 7x7, partner max 0.3 µM)
-0.0172
13) COc1nnc2ccc(N3CCC(c4ccc(OCCN5CCN(C)C(=O)[C@H]5C)cc4)CC3)nn12 [AZD5153] + C=CCn1c(=O)c2cnc(Nc3ccc(N4CCN(C)CC4)cc3)nc2n1-c1cccc(C(C)(C)O)n1 [AZD1775] (first compound max 1 µM, partner max 1 µM)
-0.0172
14) CN(C)CCCOc1ccc(-c2ccc3ncc4c(c3c2)n(C2CCOCC2)c(=O)n4C)cn1 [AZD0156] + O=C(c1cc(Cc2n[nH]c(=O)c3ccccc23)ccc1F)N1CCN(C(=O)C2CC2)CC1 [Olaparib] (first compound max 3 µM, partner max 3 µM)
0.0148

====

System: MES-SA (Other Solid Carcinomas)
Assay: Bliss excess, mean over the matrix (fraction); higher = more synergy
Response field class: string, computed from recorded Bliss excess by ranges lowest = under -0.02, middle = from -0.02 up to 0.02, highest = 0.02 and over

1. C=CCn1c(=O)c2cnc(Nc3ccc(N4CCN(C)CC4)cc3)nc2n1-c1cccc(C(C)(C)O)n1 [AZD1775] + O=C(c1cc(Cc2n[nH]c(=O)c3ccccc23)ccc1F)N1CCN(C(=O)C2CC2)CC1 [Olaparib] (first compound max 1 µM, partner max 10 µM)
lowest
2. CC(=O)Nc1cccc(-n2c(=O)n(C3CC3)c(=O)c3c(Nc4ccc(I)cc4F)n(C)c(=O)c(C)c32)c1 [Trametinib] + Cc1nc(-c2cn3c(n2)-c2ccc(-c4cnn(C(C)(C)C(N)=O)c4)cc2OCC3)n(C(C)C)n1 [Taselisib] (first compound max 1 µM, 7x7, partner max 10 µM)
highest
3. COc1cc2ncnc(Nc3ccc(F)c(Cl)c3)c2cc1OCCCN1CCOCC1 [Gefitinib] + CC(C)n1c(=O)n(C)c2cnc3cc(F)c(-c4ccc(OCCCN5CCCCC5)nc4)cc3c21 [AZD1390] (first compound max 10 µM, 7x7, partner max 0.3 µM)
lowest
4. COc1cccc(OCCCN)c1-c1cc(Nc2cnc(C#N)cn2)n[nH]1 [Prexasertib] + O=C(c1cc(Cc2n[nH]c(=O)c3ccccc23)ccc1F)N1CCN(C(=O)C2CC2)CC1 [Olaparib] (first compound max 1 µM, 7x7, partner max 10 µM)
lowest
5. Cn1cnc2c(F)c(Nc3ccc(Br)cc3Cl)c(C(=O)NOCCO)cc21 [Selumetinib] + C[C@@H]1COCCN1C2=NC(=NC(=C2)C3(CC3)[S@](=N)(=O)C)C4=C5C=CNC5=NC=C4 [AZD6738] (first compound max 10 µM, 7x7, partner max 10 µM)
middle
6. CC1(C)CCC(CN2CCN(c3ccc(C(=O)NS(=O)(=O)c4ccc(NCC5CCOCC5)c([N+](=O)[O-])c4)c(Oc4cnc5[nH]ccc5c4)c3)CC2)=C(c2ccc(Cl)cc2)C1 [Venetoclax] + Cc1cc2ncnn2cc1Nc1ncc2c(n1)n(C1CCOCC1)c(=O)n2C [AZD7648] (first compound max 1 µM, 7x7, partner max 10 µM)
lowest
7. CC1(C)CCC(CN2CCN(c3ccc(C(=O)NS(=O)(=O)c4ccc(NCC5CCOCC5)c([N+](=O)[O-])c4)c(Oc4cnc5[nH]ccc5c4)c3)CC2)=C(c2ccc(Cl)cc2)C1 [Venetoclax] + C[C@@H]1COCCN1C2=NC(=NC(=C2)C3(CC3)[S@](=N)(=O)C)C4=C5C=CNC5=NC=C4 [AZD6738] (first compound max 1 µM, 7x7, partner max 10 µM)
middle
8. Cc1cc2ncnn2cc1Nc1ncc2c(n1)n(C1CCOCC1)c(=O)n2C [AZD7648] + O=C(c1cc(Cc2n[nH]c(=O)c3ccccc23)ccc1F)N1CCN(C(=O)C2CC2)CC1 [Olaparib] (first compound max 10 µM, 7x7, partner max 10 µM)
highest
9. Cc1cc2ncnn2cc1Nc1ncc2c(n1)n(C1CCOCC1)c(=O)n2C [AZD7648] + C[C@@H]1COCCN1C2=NC(=NC(=C2)C3(CC3)[S@](=N)(=O)C)C4=C5C=CNC5=NC=C4 [AZD6738] (first compound max 10 µM, 7x7, partner max 10 µM)
highest
10. Cc1cc2ncnn2cc1Nc1ncc2c(n1)n(C1CCOCC1)c(=O)n2C [AZD7648] + C=CCn1c(=O)c2cnc(Nc3ccc(N4CCN(C)CC4)cc3)nc2n1-c1cccc(C(C)(C)O)n1 [AZD1775] (first compound max 10 µM, partner max 1 µM)
middle
11. Cc1c2c(nn1C)CSCc1cc(n(C)n1)CSc1cc(c3ccccc3c1)OCCCc1c(C(=O)O)n(C)c3c-2c(Cl)ccc13 [AZD5991] + C=CCn1c(=O)c2cnc(Nc3ccc(N4CCN(C)CC4)cc3)nc2n1-c1cccc(C(C)(C)O)n1 [AZD1775] (first compound max 1 µM, partner max 1 µM)
highest
12. COc1nnc2ccc(N3CCC(c4ccc(OCCN5CCN(C)C(=O)[C@H]5C)cc4)CC3)nn12 [AZD5153] + Cc1c2c(nn1C)CSCc1cc(n(C)n1)CSc1cc(c3ccccc3c1)OCCCc1c(C(=O)O)n(C)c3c-2c(Cl)ccc13 [AZD5991] (first compound max 1 µM, 7x7, partner max 1 µM)
middle
